# measured.target: HLA-A*02:01 (Homo sapiens, UniProt P04439, D140Y/D185E/D98H/E176V/E277Q/G131W/G231S/I119V/I121R/I166T/I218V/L300P/L318F/N151K/N90K/P208A/P217A/Q86G/Q94H/R138H/R169H/T345S)
# test.details: MHC binding assay (UV-ligand exchange, β2m ELISA)
# assay.conditions: MHC class I binding score; binding to HLA-A*02:01 ranged by peptide exchange yield (UV-ligand exchange, β2m ELISA)

[
  {
    "substance": "22 (KLLELQELVL; listed as Homo sapiens) [compound 22]",
    "Peptide exchange": "++++ (>75% = ++++)"
  },
  {
    "substance": "139 (AVDATVNQV; listed as Homo sapiens) [compound 139]",
    "Peptide exchange": "+++ (>50 = +++)"
  },
  {
    "substance": "83 (GLDKVITVL; listed as Homo sapiens) [compound 83]",
    "Peptide exchange": "+++ (>50 = +++)"
  },
  {
    "substance": "14 (VLYEMLYGL; listed as Homo sapiens) [compound 14]",
    "Peptide exchange": "++++ (>75% = ++++)"
  },
  {
    "substance": "60 (ILPEAQDYFL; listed as Homo sapiens) [compound 60]",
    "Peptide exchange": "++++ (>75% = ++++)"
  },
  {
    "substance": "31 (FLPRKFPSL; listed as Homo sapiens) [compound 31]",
    "Peptide exchange": "++++ (>75% = ++++)"
  },
  {
    "substance": "17 (GVVHGVATV; listed as Homo sapiens) [compound 17]",
    "Peptide exchange": "++++ (>75% = ++++)"
  },
  {
    "substance": "156 (ALMDTDGSGKLNL; listed as Homo sapiens) [compound 156]",
    "Peptide exchange": "+++ (>50 = +++)"
  },
  {
    "substance": "160 (ALDDISESI; listed as Homo sapiens) [compound 160]",
    "Peptide exchange": "++++ (>75% = ++++)"
  },
  {
    "substance": "153 (RLDEVSREL; listed as Homo sapiens) [compound 153]",
    "Peptide exchange": "+++ (>50 = +++)"
  },
  {
    "substance": "159 (TILATVPLV; listed as Homo sapiens) [compound 159]",
    "Peptide exchange": "++++ (>75% = ++++)"
  },
  {
    "substance": "58 (ILGDWSIQV; listed as Homo sapiens) [compound 58]",
    "Peptide exchange": "++++ (>75% = ++++)"
  },
  {
    "substance": "18 (SLADVVDTL; listed as Homo sapiens) [compound 18]",
    "Peptide exchange": "++++ (>75% = ++++)"
  },
  {
    "substance": "98 (NLPNTNSILGV; listed as Homo sapiens) [compound 98]",
    "Peptide exchange": "+++ (>50 = +++)"
  },
  {
    "substance": "75 (FMYAGQLTL; listed as Homo sapiens) [compound 75]",
    "Peptide exchange": "++++ (>75% = ++++)"
  },
  {
    "substance": "228 (FLNLFNHTL; listed as Homo sapiens) [compound 228]",
    "Peptide exchange": "++++ (>75% = ++++)"
  },
  {
    "substance": "65 (TTLGGFAKV; listed as Homo sapiens) [compound 65]",
    "Peptide exchange": "++ (>20% = ++)"
  },
  {
    "substance": "128 (ALFPGDVDRL; listed as Homo sapiens) [compound 128]",
    "Peptide exchange": "+++ (>50 = +++)"
  },
  {
    "substance": "198 (EVVDKINQV; listed as Homo sapiens) [compound 198]",
    "Peptide exchange": "+ (>10% = +)"
  },
  {
    "substance": "82 (GIDDLHISL; listed as Homo sapiens) [compound 82]",
    "Peptide exchange": "+++ (>50 = +++)"
  },
  {
    "substance": "115 (YIDDVFMGL; listed as Homo sapiens) [compound 115]",
    "Peptide exchange": "+++ (>50 = +++)"
  },
  {
    "substance": "36 (SVNGFISTL; listed as Homo sapiens) [compound 36]",
    "Peptide exchange": "++ (>20% = ++)"
  },
  {
    "substance": "2 (VLLGENVEL; listed as Homo sapiens) [compound 2]",
    "Peptide exchange": "+++ (>50 = +++)"
  },
  {
    "substance": "102 (RLPDQFSKL; listed as Homo sapiens) [compound 102]",
    "Peptide exchange": "+++ (>50 = +++)"
  },
  {
    "substance": "13 (IQSETTVTV; listed as Homo sapiens) [compound 13]",
    "Peptide exchange": "++++ (>75% = ++++)"
  },
  {
    "substance": "234 (KVPEIEVTV; listed as Homo sapiens) [compound 234]",
    "Peptide exchange": "++++ (>75% = ++++)"
  },
  {
    "substance": "185 (ILADATAKM; listed as Homo sapiens) [compound 185]",
    "Peptide exchange": "++++ (>75% = ++++)"
  },
  {
    "substance": "211 (FLPFLTTEV; listed as Homo sapiens) [compound 211]",
    "Peptide exchange": "++++ (>75% = ++++)"
  },
  {
    "substance": "181 (GLIDLEANYL; listed as Homo sapiens) [compound 181]",
    "Peptide exchange": "++++ (>75% = ++++)"
  },
  {
    "substance": "151 (FLGEPASYLYL; listed as Homo sapiens) [compound 151]",
    "Peptide exchange": "++++ (>75% = ++++)"
  },
  {
    "substance": "44 (FLYTYIAKV; listed as Homo sapiens) [compound 44]",
    "Peptide exchange": "+++ (>50 = +++)"
  },
  {
    "substance": "63 (SIDDSDPIV; listed as Homo sapiens) [compound 63]",
    "Peptide exchange": "+ (>10% = +)"
  },
  {
    "substance": "220 (SAAEPTPAV; listed as Homo sapiens) [compound 220]",
    "Peptide exchange": "+++ (>50 = +++)"
  }
]
